These entries and their values trace back to patent US9321756B2.

molecular target: full length recombinant Pim-1 (Homo sapiens (Human), UniProt P11309); assay: Pim enzyme assay (HTRF, phosphorylation of biotinylated-BAD (S112) peptide), Pim-1; type: biochemical; conditions: HTRF, 10-point curve, high dose 1 uM, 2 h at RT; read-out: Pim_1_IC50
Sequence (P11309 whole entry): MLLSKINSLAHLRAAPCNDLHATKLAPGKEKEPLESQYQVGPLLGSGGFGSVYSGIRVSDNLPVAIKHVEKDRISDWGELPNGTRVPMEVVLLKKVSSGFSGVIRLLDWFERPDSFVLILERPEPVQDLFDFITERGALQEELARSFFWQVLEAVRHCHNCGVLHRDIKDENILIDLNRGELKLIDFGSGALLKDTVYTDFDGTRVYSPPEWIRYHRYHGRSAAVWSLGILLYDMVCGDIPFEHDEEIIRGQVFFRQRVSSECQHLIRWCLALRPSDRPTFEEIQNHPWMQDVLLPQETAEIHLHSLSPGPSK
The following compounds are listed with their measured log10 of IC50 values.
The common logarithm of IC50 in µM is what is listed.

Below are worked cases with known answers.
Compound: CC(C)Nc1nccc(-c2c[nH]c3ccc(-c4nnc(NC(C)C)o4)cc23)n1 [Example 287]
Measurement Target: full length recombinant Pim-1 (Homo sapiens (Human), UniProt P11309)
Measurement Type: log10 of IC50
Measurement: -2.38
--
Compound: CC(C)Nc1nnc(-c2ccc3[nH]cc(-c4ccc(C(N)=O)cn4)c3c2)o1 [Example 303]
Measurement Target: full length recombinant Pim-1 (Homo sapiens (Human), UniProt P11309)
Measurement Type: log10 of IC50
Measurement: -0.57
--
Compound: CNC(=O)c1cccc(-c2c[nH]c3ccc(-c4nnc(NC(C)C)o4)cc23)n1 [Example 285]
Measurement Target: full length recombinant Pim-1 (Homo sapiens (Human), UniProt P11309)
Measurement Type: log10 of IC50
Measurement: -0.40
--
Compound: CC(C)Nc1nnc(-c2ccc3[nH]cc(-c4ccnc(C5CC5)n4)c3c2)o1 [Example 301]
Measurement Target: full length recombinant Pim-1 (Homo sapiens (Human), UniProt P11309)
Measurement Type: log10 of IC50
Measurement: -2.60
--
Compound: CC(C)Nc1nc(-c2c[nH]c3ccc(-c4nnc(NC(C)C)o4)cc23)cc(=O)[nH]1 [Example 288]
Measurement Target: full length recombinant Pim-1 (Homo sapiens (Human), UniProt P11309)
Measurement Type: log10 of IC50
Measurement: -2.61

Query block: // lookup log10 of IC50 | system=full length recombinant Pim-1 (Homo sapiens (Human), UniProt P11309) | key= CC(C)Nc1nnc(-c2ccc3[nH]cc(-c4cncc(C(=O)NC5CC5)c4)c3c2)o1 [Example 299]
Result block: -0.12

Query block: // lookup log10 of IC50 | system=full length recombinant Pim-1 (Homo sapiens (Human), UniProt P11309) | key= CNC(=O)c1ccnc(-c2c[nH]c3ccc(-c4nnc(NC(C)C)o4)cc23)n1 [Example 282, 2,2,2-trifluoroacetate]
Result block: -0.29

Query block: // lookup log10 of IC50 | system=full length recombinant Pim-1 (Homo sapiens (Human), UniProt P11309) | key= CC(C)Nc1nnc(-c2ccc3[nH]cc(NC(=O)C4CC4)c3c2)o1 [Example 291]
Result block: -1.27

Query block: // lookup log10 of IC50 | system=full length recombinant Pim-1 (Homo sapiens (Human), UniProt P11309) | key= COc1nc(-c2c[nH]c3ccc(-c4nnc(NC(C)C)o4)cc23)cc(=O)[nH]1 [Example 298]
Result block: -1.80

Query block: // lookup log10 of IC50 | system=full length recombinant Pim-1 (Homo sapiens (Human), UniProt P11309) | key= CC(C)Nc1nnc(-c2ccc3[nH]cc(-c4ncc(C(N)=O)s4)c3c2)o1 [Example 276]
Result block: -0.95
